measured.on: GlyT1 (Homo sapiens)
Construct: expressed in transfected cells
Sequence (P48067 whole entry): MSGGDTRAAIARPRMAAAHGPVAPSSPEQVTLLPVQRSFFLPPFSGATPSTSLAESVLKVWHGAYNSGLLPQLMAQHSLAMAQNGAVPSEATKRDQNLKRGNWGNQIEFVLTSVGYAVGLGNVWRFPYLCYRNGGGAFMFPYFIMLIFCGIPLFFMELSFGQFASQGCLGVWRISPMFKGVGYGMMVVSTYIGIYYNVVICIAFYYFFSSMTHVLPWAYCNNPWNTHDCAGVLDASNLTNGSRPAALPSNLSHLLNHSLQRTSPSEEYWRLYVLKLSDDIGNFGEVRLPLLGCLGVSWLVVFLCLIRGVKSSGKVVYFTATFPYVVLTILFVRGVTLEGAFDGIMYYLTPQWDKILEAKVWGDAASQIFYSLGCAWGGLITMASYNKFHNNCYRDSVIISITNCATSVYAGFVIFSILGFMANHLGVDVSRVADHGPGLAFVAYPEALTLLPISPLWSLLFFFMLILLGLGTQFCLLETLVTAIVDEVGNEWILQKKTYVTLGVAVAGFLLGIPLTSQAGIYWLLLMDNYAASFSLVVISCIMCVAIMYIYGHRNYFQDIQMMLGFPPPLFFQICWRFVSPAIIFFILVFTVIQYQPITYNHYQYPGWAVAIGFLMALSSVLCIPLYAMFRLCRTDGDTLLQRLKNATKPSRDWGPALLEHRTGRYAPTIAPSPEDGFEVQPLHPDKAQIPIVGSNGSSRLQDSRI
method.summary: Glycine Transporter 1 (GlyT1) uptake assay, scintillation proximity assay of [14C]-glycine uptake
Type: cell-based
conditions.used: SPA, four parameter logistic fit, read-out: GlyT1 (pIC50) (converted)

| molecule | IC50 |
| --- | --- |
| CS(=O)(=O)c1ccc(-c2cccc(F)c2)c(C(=O)N2Cc3cnn(CC4CC4(F)F)c3C2)c1 (stereo not shown) | 1 to 10 µM |
| CS(=O)(=O)c1ccc(N2CCCCC2)c(C(=O)N2Cc3cn(-c4ccc(F)cn4)nc3C2)c1 | < 0.1 µM |
| C[C@H](Oc1ccc(C#N)c(Cl)c1C(=O)N1Cc2cn(-c3cn(C)cn3)nc2C1)C(F)(F)F | 0.1 to 1 µM |
| Cc1cc(-n2cc3c(n2)CN(C(=O)c2cc(C#N)ccc2-c2cccc(C(F)(F)F)c2)C3)ccn1 | 1 to 10 µM |
| CCc1cc(-n2cc3c(n2)CN(C(=O)c2cc(C#N)ccc2O[C@@H](C)C(F)(F)F)C3)ccn1 | < 0.1 µM |
| CCc1cc(-n2cc3c(n2)CN(C(=O)c2cc(C#N)ccc2OCC(F)F)C3)ccn1 | 0.1 to 1 µM |
| CS(=O)(=O)c1ccc(-c2cccc(F)c2)c(C(=O)N2Cc3cn(C4CCC(F)(F)CC4)nc3C2)c1 | < 0.1 µM |
